These data points were gathered from the supplement of paper PMC11246515.

Assignment: determine reported total protein half-life in vivo for the given sequences.
assay-protocol: total protein half-life in vivo (active degradation + dilution); higher = more stable protein
condition-context: E. coli NCM3722 delta-hslV; growth: N-lim chemostat; doubling time 6 h
Numbers only, in h.

* MRHIFQRLLPRRLWLAGLPCLALLGCVQNHNKPAIDTPAEEKIPVYQLADYLSTECSDIWALQGKSTETNPLYWLRAMDCADRLMPAQSRQQARQYDDGSWQNTFKQGILLADAKITPYERRQLVARIEALSTEIPAQVRPLYQLWRDGQALQLQLAEERQRYSKLQQSSDSELDTLRQQHHVLQQQLELTTRKLENLTDIERQLSTRKPAGNFSPDTPHESEKPAPSTHEVTPDEP [P0AD44] | 6.18

Quick batch: total protein half-life in vivo for everything below.
1. MTPTIELICGHRSIRHFTDEPISEAQREAIINSARATSSSSFLQCSSIIRITDKALREELVTLTGGQKHVAQAAEFWVFCADFNRHLQICPDAQLGLAEQLLLGVVDTAMMAQNALIAAESLGLGGVYIGGLRNNIEAVTKLLKLPQHVLPLFGLCLGWPADNPDLKPRLPASILVHENSYQPLDKGALAQYDEQLAEYYLTRGSNNRRDTWSDHIRRTIIKESRPFILDYLHKQGWATR
2. MWIGIISLFPEMFRAITDYGVTGRAVKNGLLSIQSWSPRDFTHDRHRTVDDRPYGGGPGMLMMVQPLRDAIHAAKAAAGEGAKVIYLSPQGRKLDQAGVSELATNQKLILVCGRYEGIDERVIQTEIDEEWSIGDYVLSGGELPAMTLIDSVSRFIPGVLGHEASATEDSFAEGLLDCPHYTRPEVLEGMEVPPVLLSGNHAEIRRWRLKQSLGRTWLRRPELLENLALTEEQARLLAEFKTEHAQQQHKHDGMA [P0A873]

[4.1, 4.21]

====

assay-protocol: total protein half-life in vivo (active degradation + dilution); higher = more stable protein
condition-context: E. coli NCM3722 delta-lon; growth: N-lim chemostat; doubling time 6 h
measurement-name: total protein half-life in vivo (h)
Numbers only, in h.

- MDNDKIDQHSDEIEVESEEKERGKKIEIDEDRLPSRAMAIHEHIRQDGEKELERDAMALLWSAIAAGLSMGASLLAKGIFQVELEGVPGSFLLENLGYTFGFIIVIMARQQLFTENTVTAVLPVMQKPTMSNVGLLIRLWGVVLLGNILGTGIAAWAFEYMPIFNEETRDAFVKIGMDVMKNTPSEMFANAIISGWLIATMVWMFPAAGAAKIVVIILMTWLIALGDTTHIVVGSVEILYLVFNGTLHWSDFIWPFALPTLAGNICGGTFIFALMSHAQIRNDMSNKRKAEARQKAERAENIKKNYKNPA: 5.46

`MKYRIALAVSLFALSAGSYATTLCQEKEQNILKEISYAEKHQNQNRIDGLNKALSEVRANCSDSQLRADHQKKIAKQKDEVAERQQDLAEAKQKGDADKIAKRERKLAEAQEELKKLEARDY` has a reported total protein half-life in vivo of 5.2

====

I'd appreciate it if you could supply total protein half-life in vivo values for the items below.
assay-protocol: total protein half-life in vivo (active degradation + dilution); higher = more stable protein
condition-context: wild type E. coli NCM3722; growth: C-lim chemostat; doubling time 3 h
Answers are plain numbers, in h.

* MRLSDYFPESSISVIHSAKDWQEAIDFSMVSLLDKNYISENYIQAIKDSTINNGPYYILAPGVAMPHARPECGALKTGMSLTLLEQGVYFPGNDEPIKLLIGLSAADADSHIGAIQALSELLCEEEILEQLLTASSEKQLADIISRG | 3.24

From here, focus on the item given below.
// field: total protein half-life in vivo; key: `MIPFNAPPVVGTELDYMQSAMGSGKLCGDGGFTRRCQQWLEQRFGSAKVLLTPSCTASLEMAALLLDIQPGDEVIMPSYTFVSTANAFVLRGAKIVFVDVRPDTMNIDETLIEAAITDKTRVIVPVHYAGVACEMDTIMALAKKHNLFVVEDAAQGVMSTYKGRALGTIGHIGCFSFHETKNYTAGGEGGATLINDKALIERAEIIREKGTNRSQFFRGQVDKYTWRDIGSSYLMSDLQAAYLWAQLEAADRINQQRLALWQNYYDALAPLAKAGRIELPSIPDGCVQNAHMFYIKLRDIDDRSALINFLKEAEIMAVFHYIPLHGCPAGEHFGEFHGEDRYTTKESERLLRLPLFYNLSPVNQRTVIATLLNYFS` ; value = 2.89
